recombinant CpLDH protein (Cryptosporidium parvum, UniProt Q9GT92, F198L/K295E/R251K) data, read-out MEAN CpLDH INHIBITION (%)

{"columns": ["compound", "MEAN CpLDH INHIBITION (%)"],
 "data": [
  ["S=C=NCc1ccccc1 [NSC118976]", -18.30],
  ["Cc1ccc(Nc2nc(C)c(C(/C=C/c3ccc(/C=C/C(=N\\NC(=O)C[n+]4ccccc4)c4sc(Nc5ccc(C)cc5[N+](=O)[O-])nc4C)cc3)=N/NC(=O)C[n+]3ccccc3)s2)c([N+](=O)[O-])c1.Cl [NSC640342]", -89.53],
  ["CCN(CC)c1ccc2cc3ccc(=[N+](CC)CC)cc-3oc2c1.[Cl-] [NSC44690]", -28.19],
  ["COc1cc(OC)c2c(C)cc(=O)oc2c1 [NSC688795]", -40.28],
  ["Cc1nc(Cl)c(C)c(Cl)n1 [NSC40212]", -35.86],
  ["Br.COC1CN(C)C(=Nc2cccc3ccccc23)S1 (stereo not drawn) [NSC135996]", -24.95],
  ["CC(Cc1ccccc1)NC1=NCCO1 (stereo not drawn) [NSC664298]", -116.71],
  ["COC(=O)c1[nH]c(=S)[nH]c(=O)c1-c1ccc(Cl)cc1 [NSC635140]", -15.60],
  ["CC(C)N.CC(C)N.[Cl-].[Cl-].[OH-].[OH-].[Pt] [NSC256927]", -46.96]
]}

Every entry's value here was drawn from paper PMC6687188.
